- assay_target: L-lactate dehydrogenase (Plasmodium falciparum (isolate CDC / Honduras))
- procedure_summary: PfLDH activity inhibition – cell lysate, 3D7 strain, counter-screen for P. falciparum growth inhibition project (AID 2304);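 also: 0% = vehicle and 100% = reference inhibitor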
- measurement_context: P. falciparum 3D7 crude extract, LDH APAD/NBT absorbance; at 2 µM; active compounds read high
The source made the active and inactive calls. No rule for the calls is given here.

- compound: "CN(C)c1cccc(CCNCCc2c[nH]c3ccc(Cl)cc23)c1"
  inhibition: "-6% (inactive)"
- compound: "O=C(CCC(=O)c1ccc2c3c(cccc13)CC2)NC1CCC(CN2CCC(c3c[nH]c4ccccc34)CC2)CC1 (stereo not given)"
  inhibition: "-1% (inactive)"
- compound: "O=C(C=Cc1ccccc1Br)NC1CCC(CN2CCC(c3c[nH]c4ccccc34)CC2)CC1 (stereo not given)"
  inhibition: "4% (inactive)"
- compound: "CC(Cc1ccc(SC(C)C)cc1)NCC(O)c1cccc(Cl)c1 (stereo not given)"
  inhibition: "-3% (inactive)"
- compound: "OC(CNCc1ccccc1OC(F)F)c1cccc(C(F)(F)F)c1 (stereo not given)"
  inhibition: "-2% (inactive)"
